Numbers sourced from ChEMBL document CHEMBL3352173.

Listed here: items and their measured solubility.
Assay: Solubility of the compound
Type: physicochemical
Please give a number only; it is taken to be in µM.

Sample answers from the record:
Compound: CO[C@H]1CN(c2nc(C(=O)N3CCOCC3)c(C(=O)O)s2)CC[C@H]1NC(=O)c1[nH]c(C)c(Cl)c1Cl (racemic)
Val: 200
--
Compound: CO[C@H]1CN(c2nc(C(=O)NCC3(C)OCCO3)c(C(=O)O)s2)CC[C@H]1NC(=O)c1[nH]c(C)c(Cl)c1Cl
Val: 620
--
Compound: CO[C@H]1CN(c2nc(C(=O)O)cs2)CC[C@H]1NC(=O)c1[nH]c(C)c(Cl)c1Cl
Val: 930
--
Compound: CO[C@H]1CN(c2nc(-c3nccn3C)c(C(=O)O)s2)CC[C@H]1NC(=O)c1[nH]c(C)c(Cl)c1Cl
Val: 12
--
Compound: COCn1ccnc1-c1nc(N2CC[C@@H](NC(=O)c3[nH]c(C)c(Cl)c3Cl)[C@@H](OC)C2)sc1C(=O)O
Val: 170
--
Compound: CO[C@H]1CN(c2nc(-c3cncnc3)c(C(=O)O)s2)CC[C@H]1NC(=O)c1[nH]c(C)c(Cl)c1Cl
Val: 260
--
Compound: CO[C@H]1CN(c2nc(C(C)=O)c(C(=O)O)s2)CC[C@H]1NC(=O)c1[nH]c(C)c(Cl)c1Cl
Val: 890

Now for a further compound.
### Prompt Quick one: solubility for CNC(=O)c1nc(N2CC[C@@H](NC(=O)c3[nH]c(C)c(Cl)c3Cl)[C@@H](OC)C2)sc1C(=O)O ?
### Response 56
